Test system: Aac MutS (Alicyclobacillus acidocaldarius subsp. acidocaldarius JCM5260)
Sequence: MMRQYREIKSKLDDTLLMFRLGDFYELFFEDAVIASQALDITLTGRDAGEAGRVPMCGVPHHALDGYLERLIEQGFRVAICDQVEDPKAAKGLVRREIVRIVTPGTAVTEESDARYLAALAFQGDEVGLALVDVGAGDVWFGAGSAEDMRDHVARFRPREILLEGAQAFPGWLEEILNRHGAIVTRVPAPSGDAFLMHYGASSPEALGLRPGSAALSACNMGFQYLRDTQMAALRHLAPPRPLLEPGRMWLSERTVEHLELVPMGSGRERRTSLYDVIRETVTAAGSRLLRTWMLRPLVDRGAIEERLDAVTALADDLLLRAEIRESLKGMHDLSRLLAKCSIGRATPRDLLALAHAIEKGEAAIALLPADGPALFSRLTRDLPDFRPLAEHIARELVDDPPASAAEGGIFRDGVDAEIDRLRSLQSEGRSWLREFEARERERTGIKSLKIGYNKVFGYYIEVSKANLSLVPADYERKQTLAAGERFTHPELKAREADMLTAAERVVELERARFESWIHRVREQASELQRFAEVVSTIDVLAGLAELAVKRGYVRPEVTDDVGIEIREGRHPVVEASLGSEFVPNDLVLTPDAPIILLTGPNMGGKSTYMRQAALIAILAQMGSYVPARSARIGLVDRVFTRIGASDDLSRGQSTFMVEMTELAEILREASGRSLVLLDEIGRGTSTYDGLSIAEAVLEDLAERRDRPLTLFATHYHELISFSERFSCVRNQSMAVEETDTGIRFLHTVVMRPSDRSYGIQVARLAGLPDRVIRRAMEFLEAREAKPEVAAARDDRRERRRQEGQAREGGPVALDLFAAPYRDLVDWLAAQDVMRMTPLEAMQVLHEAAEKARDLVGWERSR
Assay: SPR
Details: Example 2; no nucleotide, 20 mM MgCl2; text says binding not found
MEASURED ATTRIBUTE: Kd (µM)
Provide only the numeric value, understood in µM.

For the record CCGCTGAATTGCACCGAGCTCGATCCTCGATGATCCTAAGCGATCCATG (double strand) [C/G fully-matched duplex] , what value of Kd is listed for Aac MutS (Alicyclobacillus acidocaldarius subsp. acidocaldarius JCM5260)? 65.5
